These data points were gathered from patent EP3033337B1.

# pIC50 per entry
measurement_target: human N-type Ca channel (Homo sapiens)
test_method_notes: Calcium influx assay (FDSS), KCl depolarization, Fluo8 dye
Type: cell-based
Set-up: host or cells: HEK 293
pIC50 here is simply -log10 of the concentration when that concentration is written in mol/L.

>  <chemical_string>
COc1ccccc1-c1nc(C2CC(C)(C)OC(C)(C)C2)cn1-c1c(F)cc(C#N)cc1F

>  <pIC50>
7.31

$$$$
>  <chemical_string>
COc1ncccc1-c1nc(C2CC(C)(C)OC(C)(C)C2)c(Cl)n1-c1ccc(Cl)cc1

>  <pIC50>
6.82

$$$$
>  <chemical_string>
COc1ccccc1-c1nc(C2CC(C)(C)OC(C)(C)C2)cn1S(=O)(=O)CC(C)C

>  <pIC50>
6.11

$$$$

// query Report pIC50, nothing else, for this compound: COc1ncccc1-c1nc(C2CC(C)(C)OC(C)(C)C2)cn1-c1ccc(Cl)cc1
// result 7.09

###

measurement_target: human N-type Ca channel (Homo sapiens)
test_method_notes: Calcium influx assay (FDSS), KCl depolarization, Fluo8 dye
Assay type: cell-based
Design: host or cells: HEK 293
experimental_setup: HEK 293 cells expressing human N-type Ca channel; 100 mM KCl; read-out: N Type IC50 Data FDSS
recorded_metric: pIC50
Keep in mind that pIC50 stands for -log10 of concentration in molar terms.

Below are worked cases with known answers.
>  <chemical_string>
COc1ccccc1-c1nc(C2CC(C)(C)OC(C)(C)C2)cn1-c1ccc(C#N)c(C)c1

>  <measurement_target>
human N-type Ca channel (Homo sapiens)

>  <recorded_metric>
pIC50

>  <val>
6.92

$$$$
>  <chemical_string>
CCOc1ncccc1-c1nc(C2CC(C)(C)OC(C)(C)C2)cn1-c1ccc(C#N)c(F)c1

>  <measurement_target>
human N-type Ca channel (Homo sapiens)

>  <recorded_metric>
pIC50

>  <val>
6.69

$$$$
>  <chemical_string>
COc1ccccc1-c1nc(C2CC(C)(C)OC(C)(C)C2)cn1-c1ccc(C#N)c(Cl)c1

>  <measurement_target>
human N-type Ca channel (Homo sapiens)

>  <recorded_metric>
pIC50

>  <val>
6.89

$$$$
>  <chemical_string>
COc1ncccc1-c1nc(C2(O)CC(C)(C)OC(C)(C)C2)cn1-c1ccc(Cl)c(F)c1

>  <measurement_target>
human N-type Ca channel (Homo sapiens)

>  <recorded_metric>
pIC50

>  <val>
7.08

$$$$

// query # return recorded pIC50 for input COc1ncccc1-c1nc(C2CC(C)(C)OC(C)(C)C2)cn1-c1ccc(C#N)cc1F
// result 6.82

// query Return pIC50 for the following molecule: COc1cccnc1-c1nc(C2CC(C)(C)OC(C)(C)C2)cn1-c1ccc(F)cc1
// result 6.06

// query Give reported pIC50 value for COc1ccccc1-c1nc(C2CC(C)(C)OC(C)(C)C2)cn1-c1ccc(OC(F)F)cc1
// result 7.43

###

measurement_target: human N-type Ca channel (Homo sapiens)
test_method_notes: Electrophysiological response, QPatch (depolarization -80 mV to +20 mV)
experimental_setup: N Type IC50 Data Qpatch Pulse=1, Pulse=1; concentration range 0.3-10 µM
recorded_metric: IC50 (µM)
All answers are understood in µM, so give the number only.

Record excerpt, results attached:
>  <molecule>
COc1ccccc1-c1nc(C2CC(C)(C)OC(C)(C)C2)cn1-c1ccc(Cl)cc1 [Compound 38]

>  <scale_unit>
µM

>  <IC50>
2.4

$$$$
>  <molecule>
COc1ccccc1-c1nc(C2=CC(C)(C)OC(C)(C)C2)cn1-c1ccc(Cl)cc1 [Compound 124]

>  <scale_unit>
µM

>  <IC50>
2.5

$$$$
>  <molecule>
COc1cnccc1-c1nc(C2(O)CC(C)(C)OC(C)(C)C2)cn1-c1ccc(Cl)cc1 [Compound 120]

>  <scale_unit>
µM

>  <IC50>
1.6

$$$$

// query Complete the entry with IC50 for COc1ccccc1-c1nc(C2CC(C)(C)OC(C)(C)C2)cn1-c1ccc(Cl)cn1 [Compound 39]
// result 1.7

// query Note down IC50 recorded for COc1cccnc1-c1nc(C2CC(C)(C)OC(C)(C)C2)cn1-c1ccc(F)c(Cl)c1 [Compound 17]
// result 4.4

// query Give a short answer stating reported IC50 for COc1ncccc1-c1nc(C2CC(C)(C)OC(C)(C)C2)cn1-c1ccc(F)c(Br)c1 [Compound 64] .
// result 4.06

// query Entry COc1ccccc1-c1nc(C2CC(C)(C)OC(C)(C)C2)cn1-c1ccc(C#N)c(F)c1 [Compound 81] needs its IC50 filled in; supply it.
// result 6.7

// query For the molecule COc1ccccc1-c1nc(C2(O)CC(C)(C)OC(C)(C)C2)cn1-c1ccc(F)c(F)c1 [Compound 107] , report IC50.
// result 3.53

###

measurement_target: UniProt Q00975
test_method_notes: Calcium influx assay (FDSS), KCl depolarization, Fluo8 dye
Type: cell-based
Design: host or cells: HEK 293
experimental_setup: HEK 293 cells expressing human N-type Ca channel; 100 mM KCl; read-out: N Type IC50 Data FDSS
Description: All cell culture reagents were procured from HyClone and other reagents were from Fisher. Recombinant HEK 293 cells expressing human N-type Ca channel (Millipore) were maintained in DMEM F12 containing 10% FBS and selection antibiotics at 37 °C in 5% CO2. Cells were incubated at 30 °C in 5% CO2 overnight. The medium was removed and cells were loaded with Fluo8 dye (AAT Bioquest) at 37 °C and 30 °C, 30 min each in darkness. […] Cells were depolarized with 100 mM KCl and Ca influx was measured.
Labelling: IC50 reported below 300 nM becomes y; at or above becomes n.

The examples below pair each entry with its known result.
>  <chemical_string>
CCOc1ncccc1-c1nc(C2CC(C)(C)OC(C)(C)C2)cn1-c1ccc(F)c(F)c1

>  <measurement_target>
UniProt Q00975

>  <category>
y

$$$$
>  <chemical_string>
COc1ccccc1-c1nc(C2=CC(C)(C)OC(C)(C)C2)cn1-c1ccc(Br)c(F)c1

>  <measurement_target>
UniProt Q00975

>  <category>
n

$$$$

In the following, a different compound is considered.
// query Strictly below 300 nM in IC50? COc1ccccc1-c1nc(C2CC(C)(C)OC(C)(C)C2)cn1-c1ccc(C)cn1
// result n

###

measurement_target: human N-type Ca channel (Homo sapiens, UniProt Q00975)
Sequence (Q00975 whole entry): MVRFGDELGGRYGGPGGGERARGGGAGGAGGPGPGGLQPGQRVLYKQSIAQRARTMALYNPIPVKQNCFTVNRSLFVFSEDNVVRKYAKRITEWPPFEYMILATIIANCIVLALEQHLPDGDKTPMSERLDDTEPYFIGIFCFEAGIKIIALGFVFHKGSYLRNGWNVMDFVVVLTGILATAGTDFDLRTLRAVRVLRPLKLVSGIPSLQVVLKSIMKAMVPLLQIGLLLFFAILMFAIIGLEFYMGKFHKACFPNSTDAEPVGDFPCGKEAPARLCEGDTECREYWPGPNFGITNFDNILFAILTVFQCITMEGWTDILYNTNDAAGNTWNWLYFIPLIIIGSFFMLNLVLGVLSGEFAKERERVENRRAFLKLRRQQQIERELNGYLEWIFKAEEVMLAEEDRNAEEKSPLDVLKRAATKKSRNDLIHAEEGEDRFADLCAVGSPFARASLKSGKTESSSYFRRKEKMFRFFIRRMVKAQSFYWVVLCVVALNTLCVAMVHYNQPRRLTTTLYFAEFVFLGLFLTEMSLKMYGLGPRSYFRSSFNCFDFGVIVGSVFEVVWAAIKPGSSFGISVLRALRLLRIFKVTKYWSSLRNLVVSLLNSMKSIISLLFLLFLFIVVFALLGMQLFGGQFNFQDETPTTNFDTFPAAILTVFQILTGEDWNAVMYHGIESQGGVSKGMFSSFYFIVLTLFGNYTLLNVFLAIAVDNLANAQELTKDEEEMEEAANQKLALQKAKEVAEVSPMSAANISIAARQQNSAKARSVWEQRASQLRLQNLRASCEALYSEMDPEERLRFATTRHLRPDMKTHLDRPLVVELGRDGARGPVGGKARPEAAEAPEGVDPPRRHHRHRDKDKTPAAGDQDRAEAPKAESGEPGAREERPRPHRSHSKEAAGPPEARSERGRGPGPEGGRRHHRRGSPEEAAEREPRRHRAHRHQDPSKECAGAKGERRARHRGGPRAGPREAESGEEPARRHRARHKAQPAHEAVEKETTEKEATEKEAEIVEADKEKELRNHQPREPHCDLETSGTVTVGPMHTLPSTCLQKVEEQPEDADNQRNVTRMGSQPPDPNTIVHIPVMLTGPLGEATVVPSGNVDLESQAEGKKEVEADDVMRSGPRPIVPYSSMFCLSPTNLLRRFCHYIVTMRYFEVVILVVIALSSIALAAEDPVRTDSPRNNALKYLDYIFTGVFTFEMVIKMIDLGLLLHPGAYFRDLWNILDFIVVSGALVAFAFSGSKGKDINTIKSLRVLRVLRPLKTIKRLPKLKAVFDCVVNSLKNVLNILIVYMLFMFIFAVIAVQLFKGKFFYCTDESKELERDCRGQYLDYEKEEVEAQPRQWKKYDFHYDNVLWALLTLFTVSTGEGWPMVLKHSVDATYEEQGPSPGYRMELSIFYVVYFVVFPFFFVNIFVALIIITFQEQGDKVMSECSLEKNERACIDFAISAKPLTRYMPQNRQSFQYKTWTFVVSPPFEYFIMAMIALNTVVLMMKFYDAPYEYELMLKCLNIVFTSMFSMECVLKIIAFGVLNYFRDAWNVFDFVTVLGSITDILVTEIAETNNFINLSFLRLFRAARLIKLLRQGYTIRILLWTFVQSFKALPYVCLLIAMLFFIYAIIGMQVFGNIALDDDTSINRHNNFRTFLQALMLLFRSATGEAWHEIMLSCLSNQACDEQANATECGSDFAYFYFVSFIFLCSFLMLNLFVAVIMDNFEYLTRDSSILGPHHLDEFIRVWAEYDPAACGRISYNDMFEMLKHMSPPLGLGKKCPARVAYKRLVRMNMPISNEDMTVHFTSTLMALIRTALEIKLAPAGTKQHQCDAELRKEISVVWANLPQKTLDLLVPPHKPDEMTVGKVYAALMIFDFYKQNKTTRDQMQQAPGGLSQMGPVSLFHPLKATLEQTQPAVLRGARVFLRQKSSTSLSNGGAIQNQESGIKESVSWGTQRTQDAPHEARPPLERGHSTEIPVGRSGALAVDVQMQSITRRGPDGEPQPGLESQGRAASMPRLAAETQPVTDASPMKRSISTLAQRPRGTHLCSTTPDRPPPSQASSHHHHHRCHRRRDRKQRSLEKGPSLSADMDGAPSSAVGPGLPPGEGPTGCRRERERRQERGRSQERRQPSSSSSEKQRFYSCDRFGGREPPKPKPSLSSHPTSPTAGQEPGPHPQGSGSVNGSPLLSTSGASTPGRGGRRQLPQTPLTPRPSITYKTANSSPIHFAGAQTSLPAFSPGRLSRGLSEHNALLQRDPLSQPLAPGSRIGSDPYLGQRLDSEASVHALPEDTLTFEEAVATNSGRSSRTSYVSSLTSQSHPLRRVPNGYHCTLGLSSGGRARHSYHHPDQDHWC
Sequence (P54284 whole entry partner): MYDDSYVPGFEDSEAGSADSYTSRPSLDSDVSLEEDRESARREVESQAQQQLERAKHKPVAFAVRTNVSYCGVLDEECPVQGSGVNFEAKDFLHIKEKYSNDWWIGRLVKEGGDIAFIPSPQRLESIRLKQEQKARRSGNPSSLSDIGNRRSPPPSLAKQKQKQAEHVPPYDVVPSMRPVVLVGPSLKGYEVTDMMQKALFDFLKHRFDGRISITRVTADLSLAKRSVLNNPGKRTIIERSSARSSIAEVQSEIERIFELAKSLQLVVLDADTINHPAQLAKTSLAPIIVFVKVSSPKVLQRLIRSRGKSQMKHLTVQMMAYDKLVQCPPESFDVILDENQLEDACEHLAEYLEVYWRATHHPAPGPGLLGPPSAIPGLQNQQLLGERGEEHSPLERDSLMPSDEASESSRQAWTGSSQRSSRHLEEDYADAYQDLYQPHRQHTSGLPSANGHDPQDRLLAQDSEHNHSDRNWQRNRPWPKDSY
Sequence (P54289 25-956 partner limits assumed): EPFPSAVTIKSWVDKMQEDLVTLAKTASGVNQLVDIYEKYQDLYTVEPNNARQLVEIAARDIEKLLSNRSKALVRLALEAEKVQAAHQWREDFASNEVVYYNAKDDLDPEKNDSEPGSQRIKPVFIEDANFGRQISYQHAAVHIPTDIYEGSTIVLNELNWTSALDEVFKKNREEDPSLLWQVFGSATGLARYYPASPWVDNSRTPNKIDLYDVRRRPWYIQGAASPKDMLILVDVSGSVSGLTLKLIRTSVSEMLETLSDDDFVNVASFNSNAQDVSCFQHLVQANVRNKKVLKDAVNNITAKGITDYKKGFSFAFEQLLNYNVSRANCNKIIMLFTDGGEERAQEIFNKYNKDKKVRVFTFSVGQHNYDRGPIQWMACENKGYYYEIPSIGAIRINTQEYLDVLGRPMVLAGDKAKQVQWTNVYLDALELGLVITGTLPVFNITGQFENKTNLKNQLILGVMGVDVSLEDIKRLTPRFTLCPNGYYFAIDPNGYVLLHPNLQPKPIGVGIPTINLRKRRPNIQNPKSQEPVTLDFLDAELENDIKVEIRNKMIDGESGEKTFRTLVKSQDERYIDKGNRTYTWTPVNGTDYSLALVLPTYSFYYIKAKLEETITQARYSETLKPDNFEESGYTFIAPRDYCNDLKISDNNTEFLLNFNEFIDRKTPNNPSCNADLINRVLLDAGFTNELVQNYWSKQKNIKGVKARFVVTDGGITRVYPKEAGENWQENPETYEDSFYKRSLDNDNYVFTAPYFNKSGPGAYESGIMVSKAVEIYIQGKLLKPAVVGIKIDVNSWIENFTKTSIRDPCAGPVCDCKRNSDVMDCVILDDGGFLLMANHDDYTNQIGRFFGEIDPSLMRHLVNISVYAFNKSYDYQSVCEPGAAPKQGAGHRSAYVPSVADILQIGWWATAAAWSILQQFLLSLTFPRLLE
Sequence (P54289 957-1103 partner limits assumed): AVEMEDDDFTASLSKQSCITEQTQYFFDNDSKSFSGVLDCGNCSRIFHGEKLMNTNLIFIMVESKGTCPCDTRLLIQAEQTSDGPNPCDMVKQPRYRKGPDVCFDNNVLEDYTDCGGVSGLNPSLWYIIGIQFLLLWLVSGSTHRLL
test_method_notes: Electrophysiological response, QPatch (depolarization -80 mV to +20 mV)
experimental_setup: N Type IC50 Data Qpatch Pulse=15, Pulse=15; concentration range 0.01-1 µM
recorded_metric: IC50

Consider the worked cases shown below.
>  <chemical_string>
COc1ncccc1-c1nc(C2CC(C)(C)OC(C)(C)C2)c(Cl)n1-c1ccc(F)cc1

>  <val>
269 nM

$$$$
>  <chemical_string>
COc1ccccc1-c1nc(C2CC(C)(C)OC(C)(C)C2)cn1-c1cnc(C)nc1

>  <val>
> 1000 nM

$$$$
>  <chemical_string>
Cn1cnnc1-c1nc(C2CC(C)(C)OC(C)(C)C2)cn1-c1ccc(Cl)cc1

>  <val>
> 1000 nM

$$$$
>  <chemical_string>
COc1ccccc1-c1nc(C2CC(C)(C)OC(C)(C)C2)cn1-c1ccc(C#N)cc1

>  <val>
> 1000 nM

$$$$
>  <chemical_string>
CC1(C)CC(c2cn(-c3ccc(Cl)cc3)c(CC3CC3)n2)CC(C)(C)O1

>  <val>
780 nM

$$$$
>  <chemical_string>
COc1ccccc1-c1nc(C2CC(C)(C)OC(C)(C)C2)cn1-c1ccc(Cl)c(C#N)c1

>  <val>
> 1000 nM

$$$$

// query Enter recorded IC50 with human N-type Ca channel (Homo sapiens, UniProt Q00975) for CCOc1ncccc1-c1nc(C2(O)CC(C)(C)OC(C)(C)C2)cn1-c1ccc(Cl)cc1 here.
// result > 1000 nM

// query # return IC50 for COc1cnccc1-c1nc(C2CC(C)(C)OC(C)(C)C2)cn1-c1ccc(F)c(Cl)c1 , test system: human N-type Ca channel (Homo sapiens, UniProt Q00975)
// result 376 nM

###

measurement_target: human N-type Ca channel (Homo sapiens, UniProt Q00975)
test_method_notes: Electrophysiological response, QPatch (depolarization -80 mV to +20 mV)
experimental_setup: N Type IC50 Data Qpatch Pulse=15, Pulse=15; concentration range 0.3-10 µM
recorded_metric: pIC50
Please express pIC50 as -log10 of the molar concentration.

Answered cases to consult:
>  <compound>
COc1cnccc1-c1nc(C2CC(C)(C)OC(C)(C)C2)cn1-c1ccc(F)cc1 [Compound 2]

>  <val>
5.21

$$$$
>  <compound>
COc1ccccc1-c1nc(C2CC(C)(C)OC(C)(C)C2)cn1-c1ccc(Cl)cn1 [Compound 39]

>  <val>
5.72

$$$$

// query State recorded pIC50 with human N-type Ca channel (Homo sapiens, UniProt Q00975), entry COc1ccccc1-c1nc(C2CC(C)(C)OC(C)(C)C2)cn1S(=O)(=O)CC(C)C [Compound 96] , no comment.
// result 5.27

// query # assay system human N-type Ca channel (Homo sapiens, UniProt Q00975): give pIC50 of COc1ccccc1-c1nc(C2(O)CC(C)(C)OC(C)(C)C2)cn1-c1ccc(F)c(Cl)c1 [Compound 111]
// result 5.60

// query // fetch pIC50; item: COc1ncccc1-c1nc(C2(O)CC(C)(C)OC(C)(C)C2)cn1-c1ccc(Cl)c(F)c1 [Compound 113] ; system: human N-type Ca channel (Homo sapiens, UniProt Q00975)
// result 5.11

// query Report pIC50 under test system human N-type Ca channel (Homo sapiens, UniProt Q00975) for COc1ccccc1-c1nc(C2(O)CC(C)(C)OC(C)(C)C2)cn1-c1ccc(C(F)(F)F)nc1 [Compound 109] .
// result 5.10

// query Identify measured pIC50 obtained with human N-type Ca channel (Homo sapiens, UniProt Q00975) for COc1ccncc1-c1nc(C2CC(C)(C)OC(C)(C)C2)cn1-c1ccc(Cl)cc1 [Compound 68] .
// result 5.34

// query Look up and report pIC50, with human N-type Ca channel (Homo sapiens, UniProt Q00975) as system, for COc1ncccc1-c1nc(C2CC(C)(C)OC(C)(C)C2)cn1-c1ccc(Cl)c(F)c1 [Compound 44]
// result 5.51
